- Procedure Details: Pharmacokinetics of intraperitoneal or intravenous injection in CD1 mice
- Type: in vivo
- Measurement Conditions: male, CD1, mouse, plasma, ip, 10 mg/kg, IP 10 mg/kg, CD1 mice plasma, 0.25 h; read-out: Mean
Response field label: string, one of TRUE (concentration at 0.25 h strictly below 400 ng/mL) or FALSE.

Use the examples below as a reference point.
Cc1ncsc1-c1ccc(CNC(=O)[C@@H]2C[C@@H](O)CN2C(=O)[C@@H](NC(=O)COCCOc2ccc(Nc3ncc(C(F)(F)F)c(NCc4cccc(N(C)S(C)(=O)=O)c4)n3)cc2)C(C)(C)C)cc1 ... TRUE
Cc1ncsc1-c1ccc(CNC(=O)[C@@H]2C[C@@H](O)CN2C(=O)[C@@H](NC(=O)CCOCCCOc2ccc(Nc3ncc(C(F)(F)F)c(NCc4cccc(N(C)S(C)(=O)=O)c4)n3)cc2)C(C)(C)C)cc1 ... FALSE

Determine whether this molecule shows concentration at 0.25 h lower than 400 ng/mL (ties excluded): Cc1ncsc1-c1ccc(CNC(=O)[C@@H]2C[C@@H](O)CN2C(=O)[C@@H](NC(=O)COCCCOc2ccc(Nc3ncc(C(F)(F)F)c(NCc4cccc(N(C)S(C)(=O)=O)c4)n3)cc2)C(C)(C)C)cc1
FALSE

Please determine if Cc1ncsc1-c1ccc(CNC(=O)[C@@H]2C[C@@H](O)CN2C(=O)[C@@H](NC(=O)CCOCCOc2ccc(Nc3ncc(C(F)(F)F)c(NCc4cccc(N(C)S(C)(=O)=O)c4)n3)cc2)C(C)(C)C)cc1 is below 400 ng/mL in terms of concentration at 0.25 h.
FALSE

Decide: concentration at 0.25 h of CN(c1cccc(CNc2nc(Nc3ccc(OCCCOCCC(=O)NCCOc4cccc5c4C(=O)N(C4CCC(=O)NC4=O)C5=O)cc3)ncc2C(F)(F)F)c1)S(C)(=O)=O (centres unmarked) strictly below 400 ng/mL?
TRUE

----------
- Procedure Details: Pharmacokinetics of intraperitoneal or intravenous injection in CD1 mice
- Type: in vivo
- Measurement Conditions: male, CD1, mouse, plasma, ip, 10 mg/kg, IP 10 mg/kg, CD1 mice plasma, 2 h; read-out: Conc. (ng/mL) Mouse 3
Value Type: concentration at 2 h (ng/mL)
Answer format: numeric, ng/mL implied, no suffix.

Before answering, review these 3 worked examples.
Cc1ncsc1-c1ccc(CNC(=O)[C@@H]2C[C@@H](O)CN2C(=O)[C@@H](NC(=O)COCCCOc2ccc(Nc3ncc(C(F)(F)F)c(NCc4cccc(N(C)S(C)(=O)=O)c4)n3)cc2)C(C)(C)C)cc1 [Compound 101] ... 1180
Cc1ncsc1-c1ccc(CNC(=O)[C@@H]2C[C@@H](O)CN2C(=O)[C@@H](NC(=O)COCCOc2ccc(Nc3ncc(C(F)(F)F)c(NCc4cccc(N(C)S(C)(=O)=O)c4)n3)cc2)C(C)(C)C)cc1 [Compound 100] ... 1610
Cc1ncsc1-c1ccc(CNC(=O)[C@@H]2C[C@@H](O)CN2C(=O)[C@@H](NC(=O)CCOCCOc2ccc(Nc3ncc(C(F)(F)F)c(NCc4cccc(N(C)S(C)(=O)=O)c4)n3)cc2)C(C)(C)C)cc1 [Compound 102] ... 1700

I'd like to know its concentration at 2 h. The molecule in question is Cc1ncsc1-c1ccc(CNC(=O)[C@@H]2C[C@@H](O)CN2C(=O)[C@@H](NC(=O)CCOCCCOc2ccc(Nc3ncc(C(F)(F)F)c(NCc4cccc(N(C)S(C)(=O)=O)c4)n3)cc2)C(C)(C)C)cc1 [Compound 103]
826

So what's the measured concentration at 2 h for this one? CN(c1cccc(CNc2nc(Nc3ccc(OCCCOCCC(=O)NCCOc4cccc5c4C(=O)N(C4CCC(=O)NC4=O)C5=O)cc3)ncc2C(F)(F)F)c1)S(C)(=O)=O (centres unmarked) [Compound 107]
59.8
